B1: Ribonuclease, P00648 (parent)
chain: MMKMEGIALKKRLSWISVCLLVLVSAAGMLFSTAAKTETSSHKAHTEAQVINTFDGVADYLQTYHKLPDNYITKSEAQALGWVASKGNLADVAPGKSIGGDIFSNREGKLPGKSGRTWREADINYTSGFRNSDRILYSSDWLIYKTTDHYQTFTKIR

Variants of: B1
particulars: Bacillus amyloliquefaciens; pH 6.3; 25 °C; Urea; Fluorescence; MES-NaOH 450 mM; reversible: yes; structure 1BNI; whole UniProt chain shown
As shown below, each of these variants has a reported ddG of mutation (higher = less stable) value.
Kindly answer with a numeric value in kcal/mol, unit omitted.

Below, 8 variants whose answers are already recorded.
Look up ddG of mutation (higher = less stable) for this variant: I135V 1.64

Same read-out for D101A ? 2.86

Same read-out for D59A ? 0.39

Same read-out for Y150F ? 0.18

Same read-out for I72V ? 0.83

Same read-out for Y125F ? 1.14

Same read-out for I51V ? 0.81

Same read-out for T146V ? 2.92

Next:
Look up ddG of mutation (higher = less stable) for this variant: K109R 0.32

Same read-out for L136V ? 0.47

Same read-out for N105A ? 2
